Target: Drosophila OR47a (Drosophila melanogaster, UniProt P81921)
Construct: expressed in transfected cells
Sequence (P81921 1-385): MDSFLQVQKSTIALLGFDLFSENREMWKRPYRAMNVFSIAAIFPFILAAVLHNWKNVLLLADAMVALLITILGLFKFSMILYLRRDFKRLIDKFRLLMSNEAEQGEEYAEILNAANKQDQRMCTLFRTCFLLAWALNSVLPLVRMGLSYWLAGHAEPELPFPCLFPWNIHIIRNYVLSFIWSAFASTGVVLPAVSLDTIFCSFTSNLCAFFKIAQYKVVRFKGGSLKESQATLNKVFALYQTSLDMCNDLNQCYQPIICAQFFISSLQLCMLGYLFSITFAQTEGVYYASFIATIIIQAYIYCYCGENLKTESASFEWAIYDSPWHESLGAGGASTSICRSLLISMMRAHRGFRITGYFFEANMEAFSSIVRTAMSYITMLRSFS
Sequence (Q9VNB5 1-486 partner): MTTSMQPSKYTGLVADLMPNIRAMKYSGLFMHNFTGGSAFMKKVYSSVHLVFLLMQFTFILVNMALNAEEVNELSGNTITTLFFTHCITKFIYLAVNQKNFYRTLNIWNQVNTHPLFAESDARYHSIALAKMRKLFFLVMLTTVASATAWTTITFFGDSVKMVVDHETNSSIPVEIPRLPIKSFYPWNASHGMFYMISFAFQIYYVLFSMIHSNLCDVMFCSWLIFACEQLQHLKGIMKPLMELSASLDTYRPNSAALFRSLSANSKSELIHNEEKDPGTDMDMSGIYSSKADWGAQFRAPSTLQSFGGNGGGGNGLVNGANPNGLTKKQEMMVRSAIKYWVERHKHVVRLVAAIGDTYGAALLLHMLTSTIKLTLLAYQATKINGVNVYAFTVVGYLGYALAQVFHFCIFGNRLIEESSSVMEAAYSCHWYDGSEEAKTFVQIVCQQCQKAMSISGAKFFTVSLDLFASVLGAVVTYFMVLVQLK
Assay: Calcium ion fluorescence (GCaMP6) assay, OR47a stable HEK293 cell line
Assay type: cell-based
Conditions: HEK293, read-out: OR47a Average response (VUAA1-normalized)
Procedure: These VUAA1 normalized ∆F values were used to compare the different receptors and ligands. The concentration-dependent effect of the reference ligands on their cognate cell lines was examined in more detail. Twelve different ligand concentrations were measured on each cell line in an overall 0.01 μM to 100 μM concentration range with 5 repetitions with three technical replicates each time. […]
quantity.measured: activation at 100 µM (%)
Answers are plain numbers, in %.

Examples with answers:
[
  {
    "compound": "CCCCCOC(C)=O [pentyl acetate]",
    "quantity.measured": "activation at 100 µM",
    "recorded.number": 76
  },
  {
    "compound": "CCCCCC(C)=O",
    "quantity.measured": "activation at 100 µM",
    "recorded.number": 46
  },
  {
    "compound": "CCCCC(C)=O",
    "quantity.measured": "activation at 100 µM",
    "recorded.number": 16
  },
  {
    "compound": "CCCCCC(=O)OCC [ethyl hexanoate]",
    "quantity.measured": "activation at 100 µM",
    "recorded.number": 67
  },
  {
    "compound": "CCCC(O)CC (centres unmarked)",
    "quantity.measured": "activation at 100 µM",
    "recorded.number": 11
  }
]

Would you mind giving activation at 100 µM for every compound in the list below?
1. CCCOC(C)=O [propyl acetate]
2. CC(=O)OCC(C)C [isobutyl acetate]
3. CCOC(=O)c1ccccc1 [ethyl benzoate]

output:
33
65
10

====

Kindly state OR47a response (VUAA1-normalized) at 1 μM for each of the entries shown.
target: Drosophila OR47a (Drosophila melanogaster, UniProt P81921); construct: expressed in transfected cells; test: Calcium ion fluorescence (GCaMP6) assay, OR47a stable HEK293 cell line; type: cell-based; conditions: OR47a cell line, VOC concentration 1 μM
One number for each entry.

Examples with answers:
[
  {
    "molecule": "Cc1ccc(C)cc1",
    "recorded.number": 0.00
  },
  {
    "molecule": "CCCCCCCCC=O",
    "recorded.number": 0.00
  },
  {
    "molecule": "CCCCCCCCCCCCCC",
    "recorded.number": 0.00
  },
  {
    "molecule": "CCCCCOC(C)=O [pentyl acetate]",
    "recorded.number": 0.41
  },
  {
    "molecule": "C=Cc1ccccc1",
    "recorded.number": 0.00
  }
]

Would you mind giving OR47a response (VUAA1-normalized) at 1 μM for every molecule in the list below?
1. Cc1ccccc1C
2. CCCCCCCCCCC
3. Cc1ccccc1
4. CCCOC(C)=O [propyl acetate]

output:
1. 0.00
2. 0.00
3. 0.00
4. 0.00

====

Molecular target: Drosophila OR10a (Drosophila melanogaster)
Construct: expressed in transfected cells
Sequence (Q9VYZ1 1-406): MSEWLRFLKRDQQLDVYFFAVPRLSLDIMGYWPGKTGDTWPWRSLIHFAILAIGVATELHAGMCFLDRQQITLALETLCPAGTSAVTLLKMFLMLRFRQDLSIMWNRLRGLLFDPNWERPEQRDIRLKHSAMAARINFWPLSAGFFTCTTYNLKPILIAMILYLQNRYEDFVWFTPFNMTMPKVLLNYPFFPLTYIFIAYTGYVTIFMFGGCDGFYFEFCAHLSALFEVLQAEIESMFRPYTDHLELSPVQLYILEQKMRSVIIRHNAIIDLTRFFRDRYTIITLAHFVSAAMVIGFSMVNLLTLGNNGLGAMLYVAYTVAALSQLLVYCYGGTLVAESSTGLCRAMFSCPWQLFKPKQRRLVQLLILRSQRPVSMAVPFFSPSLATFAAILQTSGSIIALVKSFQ
Sequence (Q9VNB5 1-486 partner): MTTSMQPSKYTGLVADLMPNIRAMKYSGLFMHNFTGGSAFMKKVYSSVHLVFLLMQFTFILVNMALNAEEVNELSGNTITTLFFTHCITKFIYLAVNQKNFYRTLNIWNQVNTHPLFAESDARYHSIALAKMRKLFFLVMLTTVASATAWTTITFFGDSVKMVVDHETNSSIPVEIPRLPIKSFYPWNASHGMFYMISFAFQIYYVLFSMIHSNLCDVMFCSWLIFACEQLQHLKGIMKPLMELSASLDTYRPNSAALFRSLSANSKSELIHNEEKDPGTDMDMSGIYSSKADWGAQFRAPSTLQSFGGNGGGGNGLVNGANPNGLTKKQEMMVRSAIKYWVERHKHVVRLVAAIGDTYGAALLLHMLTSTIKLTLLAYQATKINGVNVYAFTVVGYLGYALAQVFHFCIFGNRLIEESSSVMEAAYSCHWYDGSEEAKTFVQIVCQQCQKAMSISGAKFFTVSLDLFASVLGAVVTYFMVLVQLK
Assay: Calcium ion fluorescence (GCaMP6) assay, OR10a stable HEK293 cell line
Format: cell-based
Details: HEK293, 1 μM VOC; 50 μM VUAA1 = 1; responses not exceeding 0.05 considered 0; read-out: OR10a Average response (VUAA1-normalized)
quantity.measured: activation at 1 µM (%)
Numbers only, in %.

Examples with answers:
[
  {
    "compound": "CCCCCC(C)=O",
    "recorded.number": 3
  },
  {
    "compound": "CCOC(=O)CC [ethyl propionate]",
    "recorded.number": 1.56
  },
  {
    "compound": "C=CC(O)CCCCC (stereo not drawn)",
    "recorded.number": 0
  },
  {
    "compound": "CCCCCC(=O)CC",
    "recorded.number": 2
  },
  {
    "compound": "CCCCCO",
    "recorded.number": 0
  }
]

Would you mind giving activation at 1 µM for every compound in the list below?
1. CCCC(=O)OCC [ethyl butyrate]
2. C=CCc1ccc(O)c(OC)c1
3. CCCCCC(O)CC (stereo not drawn)

output:
0
8.49
0

Would you mind giving activation at 1 µM for every compound in the list below?
1. O=Cc1ccccc1
2. CCCCCCCCC=O
3. CCCCCCCCCCCCCC

output:
1. 0
2. 0
3. 11

Would you mind giving activation at 1 µM for every compound in the list below?
1. C=CC(C)(O)CCC=C(C)C (stereo not drawn)
2. CCCOC(C)=O [propyl acetate]
3. C=CC(O)C/C=C\CC (stereo not drawn)
4. CCCCCC(=O)OCC [ethyl hexanoate]
5. CCCCCCCCCCC

output:
1: 2; 2: 0; 3: 0; 4: 6; 5: 0

====

molecular target: Drosophila OR85b (Drosophila melanogaster, UniProt Q9VHQ7); construct: expressed in transfected cells; assay: Calcium ion fluorescence (GCaMP6) assay, OR85b stable HEK293 cell line; type: cell-based; details: ligand concentration 10 (unit not given); threshold 0.05, below shown as 0
Sequence (Q9VHQ7 whole entry, one chain of several): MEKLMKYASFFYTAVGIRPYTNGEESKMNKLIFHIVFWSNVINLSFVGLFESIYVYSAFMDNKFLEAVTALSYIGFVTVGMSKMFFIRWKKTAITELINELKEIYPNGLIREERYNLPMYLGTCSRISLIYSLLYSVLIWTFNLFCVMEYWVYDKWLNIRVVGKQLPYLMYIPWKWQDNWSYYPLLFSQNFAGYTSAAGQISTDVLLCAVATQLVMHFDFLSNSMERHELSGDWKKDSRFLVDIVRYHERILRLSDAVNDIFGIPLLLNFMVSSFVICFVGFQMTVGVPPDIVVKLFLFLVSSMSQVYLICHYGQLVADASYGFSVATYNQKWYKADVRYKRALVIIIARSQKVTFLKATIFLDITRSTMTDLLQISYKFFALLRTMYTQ
Kindly state DF norm AVERAGE OR85b for each of the entries shown.
Give bare numbers.

Examples with answers:
[
  {
    "compound": "CCCCCCCCCC=O",
    "system.name": "Drosophila OR85b (Drosophila melanogaster, UniProt Q9VHQ7)",
    "DF norm AVERAGE OR85b": 0
  },
  {
    "compound": "CC(C)=CCC/C(C)=C/CC/C(C)=C/CO",
    "system.name": "Drosophila OR85b (Drosophila melanogaster, UniProt Q9VHQ7)",
    "DF norm AVERAGE OR85b": 0.07925
  },
  {
    "compound": "C=C(C)[C@H]1CC=C(C)CC1",
    "system.name": "Drosophila OR85b (Drosophila melanogaster, UniProt Q9VHQ7)",
    "DF norm AVERAGE OR85b": 0.08814
  },
  {
    "compound": "CC(=O)c1ccccc1",
    "system.name": "Drosophila OR85b (Drosophila melanogaster, UniProt Q9VHQ7)",
    "DF norm AVERAGE OR85b": 0
  },
  {
    "compound": "Cc1ccc(C)cc1",
    "system.name": "Drosophila OR85b (Drosophila melanogaster, UniProt Q9VHQ7)",
    "DF norm AVERAGE OR85b": 0.1515
  }
]

Would you mind giving DF norm AVERAGE OR85b for every compound in the list below?
1. CCCCCCCCC=O
2. COC(=O)c1ccccc1O [methyl salicylate]

output:
1: 0; 2: 0

input: Which DF norm AVERAGE OR85b is listed for CCCOC(C)=O [propyl acetate] ?
output: 0
